- testedSystem: Abl (Homo sapiens, UniProt P00519)
- Sequence (P00519 whole entry): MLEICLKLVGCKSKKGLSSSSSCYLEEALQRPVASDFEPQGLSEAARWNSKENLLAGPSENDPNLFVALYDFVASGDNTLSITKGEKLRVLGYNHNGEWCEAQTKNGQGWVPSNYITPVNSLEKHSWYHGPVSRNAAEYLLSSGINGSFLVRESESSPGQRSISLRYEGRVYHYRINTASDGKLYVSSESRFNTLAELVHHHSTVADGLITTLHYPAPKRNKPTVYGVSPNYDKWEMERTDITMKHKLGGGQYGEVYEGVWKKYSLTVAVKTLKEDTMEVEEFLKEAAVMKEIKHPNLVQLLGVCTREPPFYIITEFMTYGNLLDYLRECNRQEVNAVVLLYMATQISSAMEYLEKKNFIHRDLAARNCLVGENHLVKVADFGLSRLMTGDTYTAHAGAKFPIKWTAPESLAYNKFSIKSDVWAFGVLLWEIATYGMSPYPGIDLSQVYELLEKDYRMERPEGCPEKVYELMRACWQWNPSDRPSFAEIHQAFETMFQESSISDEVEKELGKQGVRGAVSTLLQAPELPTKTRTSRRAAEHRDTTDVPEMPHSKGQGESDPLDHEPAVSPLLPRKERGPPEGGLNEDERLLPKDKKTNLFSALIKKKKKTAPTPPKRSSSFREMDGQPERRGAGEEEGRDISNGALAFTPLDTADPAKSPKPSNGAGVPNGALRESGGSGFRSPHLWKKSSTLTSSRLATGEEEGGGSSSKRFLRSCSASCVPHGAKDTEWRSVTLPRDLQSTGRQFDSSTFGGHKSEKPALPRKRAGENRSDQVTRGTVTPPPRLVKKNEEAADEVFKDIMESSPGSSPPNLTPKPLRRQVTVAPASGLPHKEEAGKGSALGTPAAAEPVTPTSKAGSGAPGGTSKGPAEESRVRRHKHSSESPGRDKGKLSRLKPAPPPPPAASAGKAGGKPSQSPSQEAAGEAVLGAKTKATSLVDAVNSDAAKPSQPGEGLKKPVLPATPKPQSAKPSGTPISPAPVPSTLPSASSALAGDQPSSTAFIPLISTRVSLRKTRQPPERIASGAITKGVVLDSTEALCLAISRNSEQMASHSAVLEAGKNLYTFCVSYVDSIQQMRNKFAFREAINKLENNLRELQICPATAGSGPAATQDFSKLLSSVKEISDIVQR
- protocol: in vitro kinase assay with active recombinant Abl
valueType: IC50 (µM)

{"columns": ["compound", "valueType", "unitAnnotation", "testValue"],
 "data": [
  ["O=C1Nc2ccccc2C1=C1Nc2ccccc2C1=NOCC(O)CO (stereo not shown) [E804]", "IC50", "µM", 8.7]
]}
